Protein target, amino acids: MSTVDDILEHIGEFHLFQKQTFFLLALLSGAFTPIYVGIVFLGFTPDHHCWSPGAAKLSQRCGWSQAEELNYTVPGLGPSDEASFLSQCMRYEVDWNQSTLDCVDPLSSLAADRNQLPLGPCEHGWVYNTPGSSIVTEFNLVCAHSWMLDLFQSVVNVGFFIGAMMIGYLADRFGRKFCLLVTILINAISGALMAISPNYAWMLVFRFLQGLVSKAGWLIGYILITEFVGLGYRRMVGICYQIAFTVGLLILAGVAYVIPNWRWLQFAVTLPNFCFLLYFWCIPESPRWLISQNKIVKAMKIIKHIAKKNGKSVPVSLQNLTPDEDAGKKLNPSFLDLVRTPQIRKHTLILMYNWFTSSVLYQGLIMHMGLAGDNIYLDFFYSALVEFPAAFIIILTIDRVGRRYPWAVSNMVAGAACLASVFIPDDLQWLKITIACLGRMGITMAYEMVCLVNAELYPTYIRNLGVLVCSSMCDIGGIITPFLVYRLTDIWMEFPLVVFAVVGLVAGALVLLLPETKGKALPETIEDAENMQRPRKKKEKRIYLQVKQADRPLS
resultType: Ki (µM)
Reply with just the number (in µM).

What value of measured Ki is listed for Cc1cccc([C@@H]2CN(C)CCc3c2cc(O)c(O)c3Cl)c1 [MCL-202] ?
3

###

In this section, each of the compounds is paired with its reported Ki.
molecular target: D(1A) dopamine receptor (Rattus norvegicus)
Sequence (P18901 whole entry): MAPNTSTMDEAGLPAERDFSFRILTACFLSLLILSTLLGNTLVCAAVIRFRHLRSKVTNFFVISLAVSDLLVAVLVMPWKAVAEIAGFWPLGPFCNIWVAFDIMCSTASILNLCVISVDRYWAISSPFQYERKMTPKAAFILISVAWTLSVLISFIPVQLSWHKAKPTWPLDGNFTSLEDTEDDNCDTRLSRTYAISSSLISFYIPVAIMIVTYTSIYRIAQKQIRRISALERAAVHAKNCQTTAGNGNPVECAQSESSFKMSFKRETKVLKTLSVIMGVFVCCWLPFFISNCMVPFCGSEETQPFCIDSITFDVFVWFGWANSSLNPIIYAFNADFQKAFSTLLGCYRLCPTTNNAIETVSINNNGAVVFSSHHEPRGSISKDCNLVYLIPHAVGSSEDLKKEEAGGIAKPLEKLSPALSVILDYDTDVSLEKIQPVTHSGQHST
Use nM as the unit, but write only the number.

Cc1ccc(C2CN(C)CCc3c2cc(O)c(O)c3Br)cc1 (stereo unspecified) [MCL-212]
19.3
CN1CCc2c(cc(O)c(O)c2Br)[C@H](c2cccc(C(F)(F)F)c2)C1 [MCL-211]
8.66
Cc1cccc([C@@H]2CN(C)CCc3c2cc(O)c(O)c3Br)c1 [MCL-203]
0.19
Cc1cccc(C2CNCCc3c2cc(O)c(O)c3Cl)c1 (stereo unspecified) [MCL-209]
0.6
Cc1ccccc1C1CN(C)CCc2c1cc(O)c(O)c2Cl (stereo unspecified) [NSC_0]
0.46
C=CCN1CCc2c(cc(O)c(O)c2Br)C(c2cccc(C)c2)C1 (stereo unspecified) [MCL-204]
0.11
Cc1ccc(C2CN(C)CCc3c2cc(O)c(O)c3Cl)cc1 (stereo unspecified) [MCL-206]
1.93
Cc1ccccc1C1CN(C)CCc2c1cc(O)c(O)c2Br (stereo unspecified) [MCL-214]
1.1

State its Ki on D(1A) dopamine receptor (Rattus norvegicus): C=CCN1CCc2c(cc(O)c(O)c2Br)C(c2ccccc2C)C1 (stereo unspecified) [MCL-215]
37.1

###

Biological target: Alpha-2C adrenergic receptor (Rattus norvegicus, UniProt P22086)
Sequence (P22086 whole entry): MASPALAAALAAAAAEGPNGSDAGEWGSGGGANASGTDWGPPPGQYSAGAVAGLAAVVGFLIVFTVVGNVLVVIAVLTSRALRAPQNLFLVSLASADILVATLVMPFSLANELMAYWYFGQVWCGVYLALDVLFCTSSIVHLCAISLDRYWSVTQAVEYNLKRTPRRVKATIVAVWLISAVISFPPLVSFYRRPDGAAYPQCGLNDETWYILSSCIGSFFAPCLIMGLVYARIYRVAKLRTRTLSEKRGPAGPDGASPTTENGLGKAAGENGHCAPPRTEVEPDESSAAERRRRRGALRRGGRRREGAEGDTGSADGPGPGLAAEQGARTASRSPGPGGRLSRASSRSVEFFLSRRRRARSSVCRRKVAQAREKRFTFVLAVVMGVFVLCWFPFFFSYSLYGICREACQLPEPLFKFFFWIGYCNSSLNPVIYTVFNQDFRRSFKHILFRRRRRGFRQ
resultType: pKi
A value of pKi is the negative decimal logarithm of a concentration given in moles per litre.

C=CCN1CCc2c(cc(O)c(O)c2Br)C(c2cccc(C)c2)C1 (centres undefined)
6.15
Cc1cccc(C2CNCCc3c2cc(O)c(O)c3Cl)c1 (centres undefined)
6.62
Cc1cccc([C@H]2CN(C)CCc3c2cc(O)c(O)c3Cl)c1
6.53
Cc1cccc(C2CNCCc3c2cc(O)c(O)c3Br)c1 (centres undefined)
6.47

Alright, here's another compound for you.
Requested read-out: pKi. Entry: C=CCN1CCc2cc(O)c(O)cc2C(c2ccccc2)C1 (centres undefined)
6.20

###

Biological target: Alpha-2C adrenergic receptor (Rattus norvegicus, UniProt P22086)
Sequence (P22086 whole entry): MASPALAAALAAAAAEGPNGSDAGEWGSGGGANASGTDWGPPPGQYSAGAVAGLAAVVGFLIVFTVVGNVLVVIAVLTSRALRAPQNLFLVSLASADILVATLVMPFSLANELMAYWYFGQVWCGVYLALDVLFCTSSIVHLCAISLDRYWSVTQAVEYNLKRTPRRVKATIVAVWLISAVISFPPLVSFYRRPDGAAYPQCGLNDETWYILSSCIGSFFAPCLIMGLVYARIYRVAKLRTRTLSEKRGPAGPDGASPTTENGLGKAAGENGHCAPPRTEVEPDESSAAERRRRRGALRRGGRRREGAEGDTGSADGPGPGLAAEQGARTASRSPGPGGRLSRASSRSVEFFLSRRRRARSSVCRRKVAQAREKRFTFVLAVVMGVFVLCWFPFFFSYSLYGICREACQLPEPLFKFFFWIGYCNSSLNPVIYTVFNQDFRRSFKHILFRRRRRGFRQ
resultType: Ki (nM)
Answer format: numeric, nM implied, no suffix.

Solved entries (count: 2):
C=CCN1CCc2c(cc(O)c(O)c2Cl)C(c2ccccc2)C1 (racemic)
558
Cc1ccc(C2CN(C)CCc3c2cc(O)c(O)c3Br)cc1 (centres undefined)
493

Let's switch to this compound now.
Endpoint output: Ki of Oc1cc2c(cc1O)C(c1ccccc1)CNCC2 (racemic) [(+/-)-SKF-38393] . Value?
248

Entry source: BindingDB's records for doi:10.1016/s0014-2999(03)02008-9
